- Tested On: human CCR6 (Homo sapiens, UniProt P51684)
- Construct: expressed in transfected cells; host or cells: HEK-293
- Sequence (P51684 whole entry): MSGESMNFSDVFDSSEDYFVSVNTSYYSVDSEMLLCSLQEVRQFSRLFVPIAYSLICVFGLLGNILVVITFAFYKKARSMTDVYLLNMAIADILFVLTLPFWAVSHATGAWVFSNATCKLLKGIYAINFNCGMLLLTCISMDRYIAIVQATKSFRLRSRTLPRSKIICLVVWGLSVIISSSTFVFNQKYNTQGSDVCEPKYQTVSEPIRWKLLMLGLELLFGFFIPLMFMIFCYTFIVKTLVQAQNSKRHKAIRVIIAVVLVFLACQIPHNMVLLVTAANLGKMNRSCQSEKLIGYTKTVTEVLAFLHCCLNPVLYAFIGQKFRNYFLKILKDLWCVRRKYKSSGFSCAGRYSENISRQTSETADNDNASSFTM
- Test Details: FLIPR assay (inhibition of CCL20-induced calcium signal)
- Format: cell-based
- Experimental Setup: HEK-293 cells expressing human CCR6; mean values where determined several times; read-out: FLIPR IC50
We label by threshold. Values of IC50 strictly beneath 200 nM are YES. Values of 200 nM and up are NO.

[[record]]
molecule = "CC(C)c1ccc([C@](O)(c2cncc(N3CC(c4ccccc4)CC3=O)c2)C2(C)CN(C)C2)cc1 (stereo partly shown)"
group = "YES"

[[record]]
molecule = "CC(C)c1ccc([C@](O)(c2cncc(CCC(C)(C)N3CCN(C)C3=O)c2)C2(C)CN(C)C2)cc1"
group = "YES"

[[record]]
molecule = "CC(C)c1ccc([C@](O)(c2cncc(-c3noc(C4CC(=O)N(c5ccccc5)C4)n3)c2)C2(C)CN(C)C2)cc1 (stereo partly shown)"
group = "YES"

[[record]]
molecule = "CC(C)c1ccc([C@](O)(c2cnnc(N3CCC(C(C)C)C3=O)c2)C2(C)CN(C)C2)cc1 (stereo partly shown)"
group = "YES"

[[record]]
molecule = "[2H]C([2H])([2H])C(=O)N(C)Cc1nc(-c2cncc([C@@](O)(c3ccc(C(C)C)cc3)C3(C)CN(C)C3)c2)no1"
group = "NO"


Consider CC(=O)N1CCC(c2noc(-c3cncc([C@@](O)(c4ccc(C(C)C)cc4)C4(C)CN(C)C4)c3)n2)CC1 . Does its IC50 lie strictly below 200 nM?
YES

Reference source for all entries: patent US12617773B2
